Below, each entry is listed with its recorded pEC50.
# System: T1, human CD40 with C-terminal Flag tag on HEK293 cells (human, UniProt P25942 21-277)
# T1 construct: whole, on cells; also called HEK293 cells highly expressing CD40; cell strain highly expressing human CD40
# T1 sequence (P25942 other isoform, or with tags, fused parts or gaps): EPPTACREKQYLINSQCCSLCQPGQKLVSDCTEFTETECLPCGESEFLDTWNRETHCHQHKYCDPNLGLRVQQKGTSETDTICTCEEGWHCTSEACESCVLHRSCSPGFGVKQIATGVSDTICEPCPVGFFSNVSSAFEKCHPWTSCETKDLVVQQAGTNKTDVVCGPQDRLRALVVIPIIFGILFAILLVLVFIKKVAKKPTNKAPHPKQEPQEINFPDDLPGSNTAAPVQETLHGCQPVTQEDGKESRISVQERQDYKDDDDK
# Assay explanation: FACS, HEK293 cells transiently expressing human CD40
Hey, just a heads up that pEC50 is the negative log base 10 of the concentration in molar.

Binder	pEC50
A297V3-Fc (Fc fusion) EVQLVESGGGLVQPGGSLRLSCAASGFTFSRYGMKWVRQAPGKGLEWVSTINSHGDTTYYADSVKGRFTISRDNAKNSLYLQMNSLRAEDTAVYYCLRIDYSDYSSRGQGTLVTVSSEPKSADKTHTCPPCPAPELLGGPSVFLFPPKPKDTLMISRTPEVTCVVVDVEHEDPEVKFNWYVDGVEVHNAKTKPREEQYNSTYRVVSVLTVLHQDWLNGKEYKCKVSSKAFPAPIEKTISKAKGQPREPQVYTLPPSRDELTKNQVSLTCLVKGFYPSDIAVEWESNGQPENNYKTTPPVLDSDGSFFLYSKLTVDKSRWQQGNVFSCSVMHEALHNHYTQKSLSLSPGK	8.90

GET /values?readout=pEC50&item= A297V4-Fc (Fc fusion) EVQLVESGGGLVQPGGSLRLSCAASGFTFSRYGMKWVRQAPGKGLEWVSTINSHGDSTYYADSVKGRFTISRDNSKNTLYLQMNSLRAEDTAVYYCLKIDYSDYSSRGQGTLVTVSSEPKSADKTHTCPPCPAPELLGGPSVFLFPPKPKDTLMISRTPEVTCVVVDVEHEDPEVKFNWYVDGVEVHNAKTKPREEQYNSTYRVVSVLTVLHQDWLNGKEYKCKVSSKAFPAPIEKTISKAKGQPREPQVYTLPPSRDELTKNQVSLTCLVKGFYPSDIAVEWESNGQPENNYKTTPPVLDSDGSFFLYSKLTVDKSRWQQGNVFSCSVMHEALHNHYTQKSLSLSPGK 8.57

How about this binder: A12V2-Fc (Fc fusion) EVQLVESGGGLVQPGGSLRLSCAASGFTFSNYGMKWVRQAPGKGLEWVSTILSQGGSTYYADSVKGRFTISRDNAKNSLYLQMNSLRAEDTALYYCLRVDWSDYSPRGQGTQVTVSSEPKSADKTHTCPPCPAPELLGGPSVFLFPPKPKDTLMISRTPEVTCVVVDVEHEDPEVKFNWYVDGVEVHNAKTKPREEQYNSTYRVVSVLTVLHQDWLNGKEYKCKVSSKAFPAPIEKTISKAKGQPREPQVYTLPPSRDELTKNQVSLTCLVKGFYPSDIAVEWESNGQPENNYKTTPPVLDSDGSFFLYSKLTVDKSRWQQGNVFSCSVMHEALHNHYTQKSLSLSPGK 9.38

How about this binder: A12V1-Fc (Fc fusion) EVQLVESGGGLVQPGGSLRLSCAASGFTFSNYGMKWVRQAPGKGLEWVSTILSQGGSTYYADSVKGRFTISRDNAKNSLYLQMNSLRAEDTALYYCARVDWSDYSPRGQGTMVTVSSEPKSADKTHTCPPCPAPELLGGPSVFLFPPKPKDTLMISRTPEVTCVVVDVEHEDPEVKFNWYVDGVEVHNAKTKPREEQYNSTYRVVSVLTVLHQDWLNGKEYKCKVSSKAFPAPIEKTISKAKGQPREPQVYTLPPSRDELTKNQVSLTCLVKGFYPSDIAVEWESNGQPENNYKTTPPVLDSDGSFFLYSKLTVDKSRWQQGNVFSCSVMHEALHNHYTQKSLSLSPGK 8.67
